molecular target: Cloned Human Dopamine D3 Receptors (Homo sapiens); construct: expressed in transfected cells; membrane homogenate; experiment: [N-Methyl-3H]Spiroperidol binding to cloned human dopamine D3 receptors; conditions: read-out: d3Ki
measurement_label: pKi
Just the number, please; pKi means minus log10 of the concentration in mol/L.

>>> print(df.to_string())
                           structure_smiles  meas_value
0  C[C@H]1CC[C@H](NC(=O)[C@@H]2C[C@H]2CN2CCN(c3ccc(Cl)c(C(F)(F)F)c3)CC2)CC1        8.36
1  C[C@H]1CC[C@H](NC(=O)[C@@H]2C[C@H]2CN2CCN(c3cccc(Cl)c3)CC2)CC1        8.56
2  CC[C@H]1CC[C@H](NC(=O)[C@@H]2C[C@H]2CN2CCN(c3ccc(Cl)c(C(F)(F)F)c3)CC2)CC1        8.61
3  C[C@H]1CC[C@H](NC(=O)[C@@H]2C[C@H]2CN2CCN(c3ccccn3)CC2)CC1        8.40
4  Cc1cccc(CNC(=O)[C@@H]2CCCC[C@H]2CN2CCN(c3csc4cc(C(F)(F)F)ccc34)CC2)c1        6.53

Exam item: Look up Cloned Human Dopamine D3 Receptors (Homo sapiens) data: pKi of CN(C)c1ccc(CNC(=O)[C@@H]2CCCC[C@@H]2CN2CCN(c3csc4cc(C(F)(F)F)ccc34)CC2)cc1 , then report it.
Marked response: 7.77

Exam item: Look up Cloned Human Dopamine D3 Receptors (Homo sapiens) data: pKi of CC[C@H]1CC[C@H](NC(=O)[C@@H]2C[C@H]2CN2CCN(c3ccc(C)cc3)CC2)CC1 , then report it.
Marked response: 7.95

---

Entries annotated with measured Ki
target: Cloned Human Dopamine D3 Receptors (Homo sapiens, UniProt P35462); construct: expressed in transfected cells; membrane homogenate; test: [N-Methyl-3H]Spiroperidol binding to cloned human dopamine D3 receptors; details: Table 2; unit inferred; read-out: d3Ki
Sequence (P35462 whole entry): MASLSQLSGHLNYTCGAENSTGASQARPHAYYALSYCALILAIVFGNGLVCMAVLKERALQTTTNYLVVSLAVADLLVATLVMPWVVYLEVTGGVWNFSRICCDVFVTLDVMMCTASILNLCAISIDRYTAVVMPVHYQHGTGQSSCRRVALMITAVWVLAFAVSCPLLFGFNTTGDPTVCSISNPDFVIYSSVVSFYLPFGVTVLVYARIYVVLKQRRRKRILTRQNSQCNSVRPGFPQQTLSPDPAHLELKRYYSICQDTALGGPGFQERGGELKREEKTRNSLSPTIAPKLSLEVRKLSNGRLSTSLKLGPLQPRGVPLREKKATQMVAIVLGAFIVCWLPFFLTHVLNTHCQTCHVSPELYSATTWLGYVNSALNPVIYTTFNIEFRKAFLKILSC
Give the value, in units of nM, as a plain number.

// solved cases for Ki follow
>>> print(df.to_string())
                           structure_smiles                               system_name  result_units  meas_value
0  C[C@@]1(C(=O)NCC2CC2)C[C@H]1CN1CCN(c2csc3cc(C(F)(F)F)ccc23)CC1  Cloned Human Dopamine D3 Receptors (Homo sapiens, UniProt P35462)            nM        31.7
1  CN(C(=O)CCCCN1CCN(c2csc3cc(F)ccc23)CC1)c1cccc2ccccc12  Cloned Human Dopamine D3 Receptors (Homo sapiens, UniProt P35462)            nM          81
2  COc1cc(CNC(=O)[C@]2(C)C[C@H]2CN2CCN(c3csc4cc(C(F)(F)F)ccc34)CC2)cc(OC)c1OC  Cloned Human Dopamine D3 Receptors (Homo sapiens, UniProt P35462)            nM        89.4

As a next step, examine the compound that follows.
Exam item: Hello, please tell me recorded Ki for this one: C[C@H]1CC[C@H](NC(=O)[C@@H]2C[C@H]2CN2CCN(Cc3ccc4c(c3)OCO4)CC2)CC1
Marked response: 126

---

target: Cloned Human Dopamine D3 Receptors (Homo sapiens); construct: expressed in transfected cells; membrane homogenate; experiment: [N-Methyl-3H]Spiroperidol binding to cloned human dopamine D3 receptors; conditions: Table 2; unit inferred; read-out: d3Ki
Classify: Fulfilled when Ki is strictly less than 20 nM; Not fulfilled when Ki is not.

Use these answered entries as a reference point.
>>> print(df.to_string())
                                   compound  discrete_label
0  CCN(C(=O)CCCCN1CCN(c2csc3cc(F)ccc23)CC1)c1ccc2c(c1)OCO2 [compound 822130]   Not fulfilled
1  O=C(NCC1CC1)[C@@H]1C[C@H]1CN1CCN(c2csc3cc(C(F)(F)F)ccc23)CC1 [compound 826067]       Fulfilled
2  COc1ccc(CNC(=O)[C@@H]2C[C@H]2CN2CCN(c3csc4cc(C(F)(F)F)ccc34)CC2)c(OC)c1 [compound 826077]   Not fulfilled
3  O=C(NC1CCCC1)[C@@H]1C[C@H]1CN1CCN(c2csc3cc(C(F)(F)F)ccc23)CC1 [compound 826658]       Fulfilled
4  CC1C(CN2CCN(c3csc4cc(C(F)(F)F)ccc34)CC2)C1C(=O)NC1CCC1 (stereo not drawn) [compound 825857]   Not fulfilled

Exam item: Would you kindly verify if Ki of O=C(CCCCN1CCN(c2csc3cc(F)ccc23)CC1)Nc1ccc(F)cc1 [compound 813384] is strictly less than 20 nM?
Marked response: Not fulfilled

Exam item: Would you kindly verify if Ki of CC1CCCC(NC(=O)[C@@H]2C[C@H]2CN2CCN(c3csc4cc(C(F)(F)F)ccc34)CC2)C1 (stereo partly drawn) [compound 826884] is strictly less than 20 nM?
Marked response: Fulfilled

Exam item: Would you kindly verify if Ki of CC[C@H]1CC[C@H](NC(=O)CCCN2CCCN(c3csc4cc(F)ccc34)CC2)CC1 [compound 826826] is strictly less than 20 nM?
Marked response: Not fulfilled

Exam item: Would you kindly verify if Ki of CCC1(O)CCC(NC(=O)[C@@H]2C[C@H]2CN2CCN(c3csc4cc(C(F)(F)F)ccc34)CC2)CC1 (stereo partly drawn) [compound 818497] is strictly less than 20 nM?
Marked response: Fulfilled

Exam item: Would you kindly verify if Ki of CC[C@H]1CC[C@H](NC(=O)[C@@H]2C[C@H]2CN2CCN(c3cc(C)ccc3C)CC2)CC1 [compound 817102] is strictly less than 20 nM?
Marked response: Fulfilled

Exam item: Would you kindly verify if Ki of CCC1CCC(NC(=O)C2CC2CN2CCN(c3noc4ccsc34)CC2)CC1 (stereo not drawn) [compound 818574] is strictly less than 20 nM?
Marked response: Fulfilled

Exam item: Would you kindly verify if Ki of CN(C)c1ccc(CNC(=O)[C@@H]2C[C@H]2CN2CCN(c3csc4cc(C(F)(F)F)ccc34)CC2)cc1 [compound 826066] is strictly less than 20 nM?
Marked response: Not fulfilled

Exam item: Would you kindly verify if Ki of C[C@]1(O)CC[C@@H](NC(=O)[C@@H]2C[C@H]2CN2CCN(c3csc4cc(C(F)(F)F)ccc34)CC2)CC1 [compound 817051] is strictly less than 20 nM?
Marked response: Fulfilled

Exam item: Would you kindly verify if Ki of CC[C@H]1CC[C@H](NC(=O)[C@@H]2C[C@H]2CN2CCCN(c3ncccc3Cl)CC2)CC1 [compound 827733] is strictly less than 20 nM?
Marked response: Fulfilled

Exam item: Would you kindly verify if Ki of C[C@@]1(C(=O)NCc2ccco2)C[C@H]1CN1CCN(c2csc3cc(C(F)(F)F)ccc23)CC1 [compound 825897] is strictly less than 20 nM?
Marked response: Not fulfilled

---

Entries annotated with measured log10(Ki)
target: Cloned Human Dopamine D3 Receptors (Homo sapiens); construct: expressed in transfected cells; membrane homogenate; assay: [N-Methyl-3H]Spiroperidol binding to cloned human dopamine D3 receptors; details: Table 2 part the 10th table; read-out: d3Ki
Note: values are log10 of Ki expressed in nM.

// solved cases for log10(Ki) follow
>>> df
                                   compound  measurement_label  meas_value
0  CC1CCN(C(=O)[C@@H]2C[C@H]2CN2CCN(c3csc4cc(C(F)(F)F)ccc34)CC2)CC1          log10(Ki)        1.60
1  CC1CCN(C(=O)CCCN2CCN(c3csc4cc(C(F)(F)F)ccc34)CC2Cc2ccccc2)CC1 (stereo not drawn)          log10(Ki)        2.23
2  CN(C)C1CCN(C(=O)CCCN2CCCN(c3csc4cc(F)ccc34)CC2)C1 (stereo not drawn)          log10(Ki)        2.10
3  O=C(CCCN1CCCN(c2csc3cc(F)ccc23)CC1)N1CCC(O)CC1          log10(Ki)        1.21
4  CC1CCCCN1C(=O)[C@@H]1C[C@H]1CN1CCN(c2csc3cc(C(F)(F)F)ccc23)CC1 (stereo partly drawn)          log10(Ki)        1.16

Exam item: Hello, please tell me recorded log10(Ki) for this one: O=C(CCCN1CCN(c2csc3cc(C(F)(F)F)ccc23)CC1Cc1ccccc1)N1CCC(O)CC1 (stereo not drawn)
Marked response: 2.57

Exam item: Hello, please tell me recorded log10(Ki) for this one: CC1CCCCN1C(=O)CCCN1CCN(c2csc3cc(F)ccc23)CC1CCCc1ccccc1 (stereo not drawn)
Marked response: 2.08

Exam item: Hello, please tell me recorded log10(Ki) for this one: COC[C@H]1CCCN1C(=O)[C@@H]1C[C@H]1CN1CCN(c2csc3cc(C(F)(F)F)ccc23)CC1
Marked response: 2.15
